Sourced from PubChem BioAssay (NCI)

Documented TGI across a set of compounds
tested on: MDA-MB-231 breast; test: NCI tumour cell line growth inhibition, 48 h

# example entries with known answers
Cc1ccc(NS(=O)(=O)c2ccc(-c3cnc(C4CC4)o3)cc2)cc1    18.8 µM
Cc1oc2ccccc2c(=O)c1Cn1nnc2ccccc21    > 100 µM

Now let's try a different one.
INPUT: Tell me TGI reported for COc1ccc(C(CC(=O)c2ccccc2)C(C(=O)c2ccccc2)C(c2ccc(OC)cc2)C2C(=O)NC(=O)NC2=O)cc1 (stereo not drawn)
OUTPUT: 16.2 µM

###

test system: KM12 colon; assay: NCI tumour cell line growth inhibition, 48 h; in the data active = GI50 below about 0.43 µM; inactive = the rest
Select the matching outcome among Yes for active, No for inactive

Solved cases (3 shown):
c1ccc2c(c1)O[As](O[As]1Oc3ccccc3O1)O2    No
O=C1Nc2ccc(F)c3c(OCCO)cc(-c4ccc[nH]4)c1c23    Yes
C[C@@H]1O[C@@H](O[C@H]2C[C@@H](O)[C@]3(CO)C4C(CC[C@]3(O)C2)[C@@]2(O)CC[C@H](C3=CC(=O)OC3)[C@@]2(C)C[C@H]4O)[C@H](O)[C@H](O)[C@H]1O (some centres undefined)    Yes

Let us examine a further case.
INPUT: Record request — test call for "COc1ccc(/C=C2/CN(C(=O)c3ccccc3F)C/C(=C\c3ccc(OC)cc3)C2=O)cc1"
OUTPUT: No

###

test system: HS 578T breast; experiment: NCI tumour cell line growth inhibition, 48 h
Where a SMILES comes first, the peptide text is derived from it. [ ]: non-standard residue; d: D form. The star is where a group is joined. ξ: configuration not given here. X16 = COC1=CC(=O)N(C(=O)C(O*)C(C)C)C1Cc1ccccc1; ξNMe2Val = CC(C)C(C(=O)*)N(C)C; NMeV = CN[CH](C(=O)O)C(C)C
value type: TGI (µM)
Give the value, in units of µM, as a plain number.

// worked examples, TGI included
COC1=CC(=O)N(C(=O)C(OC(=O)C2CCCN2C(=O)C2CCCN2C(=O)C(C(C)C)N(C)C(=O)C(NC(=O)C(C(C)C)N(C)C)C(C)C)C(C)C)C1Cc1ccccc1 (centres undefined) (ξNMe2Val-V[NMeV]PP-X16; configuration not given here)    0.000903
COc1c2nc(CCl)n(C)c(=O)c2c(OC)c2c(=O)n(C)c(CCl)nc12    95
O=C1N[C@H]2c3c(Cl)sc(Cl)c3C(=O)[C@H]2O1    43.5
O=C(CCSC(CC(=O)c1ccc(Cl)cc1)c1ccc(Cl)cc1)Nc1ccc(Cl)cc1 (centres undefined)    64.1

Could you now look at the following molecule, please?
INPUT: Answer with the recorded TGI for the molecule listed here: "O=C(CC12CC3CC(CC(C3)C1)C2)NCCOCCOCCNC(=O)c1cc2c(o1)C(=O)c1ccccc1C2=O"
OUTPUT: 5.18

###

system: SN12C renal; assay: NCI tumour cell line growth inhibition, 48 h
As shown below, each of these compounds has a reported TGI value.
The reply should be a number in µM, with the unit left off.

Consider the reported TGI for these compounds:
COc1ccc(C2C3=C(NC(=O)C2C#N)c2ccc4ccccc4c2OCC3)cc1 (centres undefined)    56.5
Oc1c(OCc2nnc(CCCCCCCCc3nnc(COc4ccc5ccccc5c4O)n3Nc3ccccc3)n2Nc2ccccc2)ccc2ccccc12    29.2
CC1(C)CCC(S(=O)(=O)c2ccc3c(c2)/C(=N\O)c2cc(S(=O)(=O)N4CCC(O)(c5cccc(C(F)(F)F)c5)CC4)ccc2-3)CC1    2.2

With those in mind, consider the next compound.
INPUT: Give the measured TGI for "[Cu+2].[Cu+2].[O-]c1ccccc1C=Nc1ccccc1[O-].[O-]c1ccccc1C=Nc1ccccc1[O-]"
OUTPUT: 27.3
